TARGET_OR_TEST_SYSTEM: histamine H2 receptor (Cavia porcellus)
Construct: enucleated atrium of a guinea pig; from tissue; host or cells: guinea pig atrium
Sequence (P47747 whole entry): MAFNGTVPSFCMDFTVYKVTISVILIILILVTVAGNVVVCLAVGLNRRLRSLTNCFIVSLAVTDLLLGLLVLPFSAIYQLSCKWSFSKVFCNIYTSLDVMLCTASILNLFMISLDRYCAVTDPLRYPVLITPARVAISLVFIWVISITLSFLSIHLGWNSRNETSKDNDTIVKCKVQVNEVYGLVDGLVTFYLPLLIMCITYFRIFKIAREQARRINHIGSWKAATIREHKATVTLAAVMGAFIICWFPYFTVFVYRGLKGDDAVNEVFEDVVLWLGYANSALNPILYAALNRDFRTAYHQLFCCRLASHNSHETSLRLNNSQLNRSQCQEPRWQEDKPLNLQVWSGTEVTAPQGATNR
METHOD_SUMMARY: Histamine H2-blocking effect in enucleated guinea pig atrium (inhibition of histamine-increased pulse)
Type: cell-based
EXPERIMENTAL_CONTEXT: in vitro; enucleated guinea pig atrium pretreated with drug; negative logarithm of antagonist dose shifting histamine dose-response curve corresponding to doubling of histamine concentration; read-out: pA2 (converted)
Description: In the table 10, the symbol pA2 indicates the degree of pulse inhibition of the compounds (I) in the present invention in the enucleated atrium of a guinea pig. The assigned number of compounds in the table conforms to the number of the examples. (Note) PA2 is an in vitro indicator of histamine H2 -blocking effect. […]
ASSAY_READOUT: Kb (nM)
# number only, unit nM dropped from output

query: Please give the measured Kb for this molecule: O=C(CSCC(=O)NCCCOc1cccc(CN2CCCC2)c1)NCCCOc1cccc(CN2CCCC2)c1
result: 66.1

query: May I ask what Kb has been recorded for O=C(/C=C/C(=O)NCCCOc1cccc(CN2CCCC2)c1)NCCCOc1cccc(CN2CCCC2)c1 ?
result: 53.7

query: Query: Kb; subject: O=C(NCCCOc1cccc(CN2CCCC2)c1)c1ccc(C(=O)NCCCOc2cccc(CN3CCCC3)c2)cc1
result: 204

query: Value lookup for Kb; key = O=C(NCCCOc1cccc(CN2CCCC2)c1)c1cccc(C(=O)NCCCOc2cccc(CN3CCCC3)c2)c1
result: 60.3
